Recorded CC50 at 72 h for the following molecules
Assay Comment: Cytotoxicity evaluation on Vero cell cultures (UptiBlue viable cell counting assay, 72 h)
Assay type: cell-based
Setup Conditions: African green monkey, Vero cells, means from four values from two experiments

>  <Molecule>
O=C(Nc1nc(-c2ccccn2)cs1)c1cncn1-c1ccccc1

>  <U>
µM

>  <CC50 at 72 h>
3.61

$$$$
>  <Molecule>
CNC(=O)c1nn(C)c2c1C(C)(C)Cc1cnc(Nc3ccc(N4CCN(C)CC4)cc3)nc1-2

>  <U>
µM

>  <CC50 at 72 h>
3.3

$$$$
>  <Molecule>
c1ccc(-c2nc(NC3CCCCC3)cc(C3CC3)n2)nc1

>  <U>
µM

>  <CC50 at 72 h>
15.9

$$$$
>  <Molecule>
O=C(Nc1ccc(N2CCNCC2)cc1)c1ccn2ncc(-c3cccc(Cl)c3)c2n1

>  <U>
µM

>  <CC50 at 72 h>
2.23

$$$$
>  <Molecule>
CCc1nc(N)nc(N)c1-c1ccc(Cl)cc1 [PYR, pyrimethamine, reference compound]

>  <U>
µM

>  <CC50 at 72 h>
10.5

$$$$

---

Assay Comment: Cytotoxicity evaluation on Vero cell cultures (UptiBlue viable cell counting assay, 72 h)
Type: cell-based
Setup Conditions: African green monkey, Vero cells, means from four values from two experiments
Protocol: The in vitro cytotoxicity of compounds was evaluated on Vero cell cultures by using 96-well plates, since these cells were used for T. gondii growth in our model. […] After 72 h, cytotoxicity was evaluated by using the UptiBlue viable cell counting assay (Interchim). […] Spectrophotometric measurements (FLUOstar Omega microplate reader; BMG Labtech, France) were made at 570 nm and corrected at 600 nm, and blank readings were made on the mean value of the seven negative-control wells. […]
Recorded CC50 at 72 h for the following compounds

>  <Compound>
O=C(Nc1ccc(C(F)(F)F)c(C(F)(F)F)c1)c1cc(Cl)ccc1O [MMV687807]

>  <CC50 at 72 h (µM)>
1.69

$$$$
>  <Compound>
COc1ccc(OC)c(NCc2ccc3nc(N)nc(N)c3c2Cl)c1 [MMV675968]

>  <CC50 at 72 h (µM)>
5.5

$$$$
>  <Compound>
CC(C)(C)[C@H]1CC[C@H](CC2=C(O)C(=O)c3ccccc3C2=O)CC1 [MMV689480, buparvaquone, reference compound]

>  <CC50 at 72 h (µM)>
8.66

$$$$
>  <Compound>
FC(F)(F)c1cnc(Sc2nnc(-c3ccncc3)o2)c(Cl)c1 [MMV011765]

>  <CC50 at 72 h (µM)>
9.48

$$$$

---

System: T. gondii tachyzoites (RH strain, type I)
Assay Comment: Determination of IC50s, in vitro chemosensitivity of T. gondii (ELISA, 72 h)
Setup Conditions: Toxoplasma gondii, Vero, 72 h, T. gondii RH tachyzoites on Vero cells, ELISA, 2-fold dilution series 2 to 0.015 μM; means from four values from two experiments
pIC50: −log10 of the molar value.
Experimental Endpoint: pIC50

>  <Molecule>
CCc1nc(N)nc(N)c1-c1ccc(Cl)cc1 [PYR, pyrimethamine, reference compound]

>  <Operator Symbol>
=

>  <Value Observed>
5.93

$$$$
>  <Molecule>
c1ccc(-c2nc(NC3CCCCC3)cc(C3CC3)n2)nc1 [MMV021013]

>  <Operator Symbol>
>

>  <Value Observed>
5.70

$$$$
